- assayDetails: chemical genetic growth profiling, strain panel (AID 1159580);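 note: tested at 20 µM; growth read once vehicle control cultures reached saturation at 30 °C; 1 = growth at the plate median or of vehicle wells; lower values mean less growth of the strain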
- testContext: S. cerevisiae deletion strains, growth OD, locus YKL009W, strain mrt4, active compounds read low
Hit rate of the full screen: of about 5,500 compounds, about 2,000 (36%) were called active. About 18% were inconclusive and are not listed. The list shows a part of the results.
testReadout: normalized growth
Just the number, please, no unit after it.

Below: 2 molecules and their reported normalized growth.
molecule	reportedValue
NCCCCN	0.99
NS(=O)(=O)c1cc2c(cc1C(F)(F)F)NC(Cc1ccccc1)NS2(=O)=O (stereo not drawn)	0.983

Ask: Consider the molecule NC(N)=Nc1ccc(Cl)cc1 and give its measured normalized growth.
Reply: 0.987

###

Listed below: normalized growth values for each entry.
- assayDetails: chemical genetic growth profiling, strain panel (AID 1159580);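 note: tested at 20 µM; growth read once vehicle control cultures reached saturation at 30 °C; 1 = growth at the plate median or of vehicle wells; lower values mean less growth of the strain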
- testContext: S. cerevisiae deletion strains, growth OD, locus YDL192W, strain arf1, active compounds read low
About 2,000 (36%) of roughly 5,500 compounds were called active. Not shown: some 18% with an inconclusive outcome. Some of the results follow.

compound	testReadout	reportedValue
CC1(C)C(=O)CC[C@@]2(C)C1C[C@@H](O)[C@@]1(C)C3=CC(=O)O[C@@H](c4ccoc4)[C@]3(C)CCC21 (some centres not stated)	normalized growth	0.987 (inactive)
COc1ccc(-c2cc(=O)c3c(O)cc(O)cc3o2)cc1	normalized growth	0.989 (inactive)
CC(=O)O[C@@H]1CC2C(C)(CC[C@H](O)C2(C)C)C2CC[C@]3(C)C(=CC(=O)O[C@H]3c3ccoc3)C21C (some centres not stated)	normalized growth	1 (inactive)
O=c1c(O)cc([C@H]2Oc3cc(O)cc(O)c3C[C@H]2O)cc2c([C@H]3Oc4cc(O)cc(O)c4C[C@H]3O)cc(O)c(O)c12	normalized growth	1 (inactive)
COc1c(O)cc2c(c1O)[C@H]1O[C@H](CO)[C@@H](O)[C@H](O)[C@@H]1OC2=O	normalized growth	0.983 (inactive)

Ask: Give the measured normalized growth of COc1ccc(-c2cc(=O)c3c(O)c(OC)c(O[C@H]4O[C@H](CO[C@@H]5O[C@@H](C)[C@H](O)[C@@H](O)[C@H]5O)[C@@H](O)[C@H](O)[C@H]4O)cc3o2)cc1 .
Reply: 1.01 (inactive)

Ask: Please report the recorded normalized growth for CC1(C)S[C@@H]2[C@H](NC(=O)C(C(=O)O)c3ccccc3)C(=O)N2[C@H]1C(=O)O (some centres not stated) .
Reply: 0.98 (inactive)

###

- assayDetails: chemical genetic growth profiling, strain panel (AID 1159580);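 note: tested at 20 µM; growth read once vehicle control cultures reached saturation at 30 °C; 1 = growth at the plate median or of vehicle wells; lower values mean less growth of the strain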
- testContext: S. cerevisiae deletion strains, growth OD, locus YNL209W, strain ssb2, active compounds read low
Among all 5,500 compounds or so, about 2,000 (36%) were called active. Roughly 18% stayed inconclusive and do not appear here. The list shows a part of the results.
testReadout: normalized growth
Lab note: jot down the number only; don't add units.

molecule	testReadout	reportedValue
C[C@@H]1CC[C@@]23CCC4(C)[C@@](C=CC5[C@@]6(C)CCC(=O)C(C)(C)C6CC[C@]54C)(OC2=O)C3[C@H]1C (stereo partly drawn)	normalized growth	0.988
NCCCN	normalized growth	0.993
C[C@H]1O[C@@H](O[C@H]2[C@@H](O)C[C@H](O[C@H]3[C@@H](O)C[C@H](O[C@H]4CC[C@]5(C)C6CC[C@]7(C)[C@@H](C8=CC(=O)OC8)CC[C@]7(O)C6CC[C@@H]5C4)O[C@@H]3C)O[C@@H]2C)C[C@H](O)[C@@H]1O (stereo partly drawn)	normalized growth	0.977
O=C(O)CCc1nc(-c2ccccc2)c(-c2ccccc2)o1	normalized growth	0.972

// next item, normalized growth requested
Ask: Reported normalized growth, molecule CC(C)(C)NCC(O)COc1cccc2c1C[C@H](O)[C@H](O)C2 (stereo partly drawn) : ____
Reply: 0.994
